experiment: Oral bioavailability in rat at 2.8 mg/kg; type: ADME, organism-based; settings: in vivo
Metric Name: bioavailability (%)
I only need the number, in %, no unit after it.

Incoming: Item under review: O=C(Nc1ccc(/C=C/c2ccc(NC(=O)[C@@H]3CCCN3C(=O)CC3CC3)cc2)cc1)[C@@H]1CCCN1C(=O)CC1CC1 . Reported bioavailability?
Outgoing: 64

* * *

test: AUC in rat at 2.8 mg/kg, iv; assay type: ADME, organism-based; set-up: dose 2.8 mg/kg, route intravenous; details: plasma
Metric Name: AUC (ng·h/mL)
Numeric only. Scale: ng·h/mL

Incoming: Param item = O=C(Nc1ccc(/C=C/c2ccc(NC(=O)[C@@H]3CCCN3C(=O)CC3CC3)cc2)cc1)[C@@H]1CCCN1C(=O)CC1CC1 ; retrieve measured AUC.
Outgoing: 18500
